System: PC-3 prostate cancer cells
Experiment: Proliferation inhibitory activity on solid tumor cells, PC-3
Type: cell-based
Details: 72 hours
observed-property: GI50 (nM)

Some entries whose results are on file:
| structure-string | test-system | GI50 / nM |
| --- | --- | --- |
| CCC(=O)N1CCN(c2nc(N3CCOCC3)nc(-n3c(C(F)F)nc4ccccc43)n2)CC1 | PC-3 prostate cancer cells | 730 |
| O=C1CCN(c2nc(N3CCOCC3)nc(-n3c(C(F)F)nc4ccccc43)n2)CCN1 | PC-3 prostate cancer cells | 270 |
| CC(=O)N1CCN(c2nc(N3CCOCC3)nc(-n3c(C(F)F)nc4ccccc43)n2)CC1 | PC-3 prostate cancer cells | 270 |

1 = CN(C)C(=O)N1CCN(c2nc(N3CCOCC3)nc(-n3c(C(F)F)nc4ccccc43)n2)CC1
2 = CC(=O)CN1CCN(c2nc(N3CCOCC3)nc(-n3c(C(F)F)nc4ccccc43)n2)CC1
INPUT: Short answer wanted: higher GI50, 1 or 2 ? State your choice using its label.
OUTPUT: 2
